Here, each record is paired with measured abundance fitness data.
B1: Serine/threonine-protein kinase A-Raf, residues 21 to 89; numbered along this chain, P10398 (parent)
chain: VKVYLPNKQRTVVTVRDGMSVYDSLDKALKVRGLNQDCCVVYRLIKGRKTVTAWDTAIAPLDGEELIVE

- Variants of: B1
- protocol.description: abundance fitness (aPCA) (normalised: wild type 0, dead -1); higher = more abundant; growth selection in yeast, the domain comes from the species named
- condition: Homo sapiens
result.type: abundance fitness

variant.label: V40Y
observed: -0.273
//
variant.label: D62E
observed: -0.128
//
variant.label: V12E
observed: -0.066
//
variant.label: K49H
observed: -0.551
//
variant.label: K30Y
observed: -0.403
//
variant.label: V3L
observed: -0.191
//
variant.label: I45K
observed: 0.089
//
variant.label: D23T
observed: -0.087
//
variant.label: G33S
observed: -0.525
//
variant.label: D37G
observed: -0.219
//
variant.label: A59R
observed: -0.007
//
variant.label: D23W
observed: -0.338
//
variant.label: Y42S
observed: -0.525
//
variant.label: V15Q
observed: -0.686
//
variant.label: G18Y
observed: -0.638
//
variant.label: E64T
observed: -0.006
//
variant.label: D37S
observed: -0.196
//
variant.label: A59N
observed: -0.366
//
variant.label: L25I
observed: -0.573
//
variant.label: V12M
observed: -0.264
//
variant.label: V12L
observed: -0.189
//
variant.label: L44T
observed: -0.169
//
variant.label: Q36P
observed: -0.03
//
variant.label: Q36V
observed: -0.028
//
variant.label: V13P
observed: -0.772
//
variant.label: D26S
observed: -0.113
//
variant.label: S20L
observed: -0.91
//
variant.label: K2V
observed: -0.118
//
variant.label: G47W
observed: -0.888
//
variant.label: V1E
observed: -0.833
//
variant.label: K46C
observed: -0.133
//
variant.label: N7D
observed: 0.039
//
variant.label: L61G
observed: -0.176
//
variant.label: I45T
observed: -0.319
//
variant.label: T11G
observed: -0.919
//
variant.label: A53M
observed: -0.549
//
variant.label: D37M
observed: -0.499
//
variant.label: V40E
observed: -0.253
//
variant.label: A28S
observed: -0.263
//
variant.label: R32A
observed: 0.088
//
variant.label: P60E
observed: 0.064
//
variant.label: D23V
observed: -0.389
//
variant.label: T56N
observed: -0.278
//
variant.label: L5Q
observed: -0.87
//
variant.label: D17V
observed: -0.186
//
variant.label: R10Q
observed: 0.036

Source of measurements: the Human Domainome abundance scans (Beltran et al. 2025)
